# assayed.system: hcGAS (Homo sapiens)
# experiment: hcGAS LCMS assay (direct measurement of cGAMP production)
# Format: biochemical
# stated.conditions: 0.5 nM hcGAS, 100 μM ATP, 100 μM GTP, 25 nM dsDNA, 4 h incubation
observation.type: IC50

// worked examples, IC50 included
compound: COC[C@@H](Nc1cc(C(=O)Nc2nnc(-n3nccc3C)s2)oc(=O)c1OC)C(C)C [Compound 77]
IC50: 5 to 20 nM
//
compound: COc1c(N2CC[C@@H](S(C)(=O)=O)C2)cc(C(=O)Nc2nnc(-n3nccc3C)s2)oc1=O [Compound 8]
IC50: 5 to 20 nM
//
compound: COC[C@@H](C)Nc1cc(C(=O)Nc2nnc(-n3nccc3C)s2)oc(=O)c1OC [Compound 121]
IC50: 5 to 20 nM

[ask] Can you look up the measured IC50 of COCCNc1cc(C(=O)Nc2nnc(-c3cscc3Cl)s2)oc(=O)c1OC [Compound 136] for me?
[reply] 5 to 20 nM

[ask] Do the same for COCCOc1c(N[C@@H](COC)c2ccccc2)cc(C(=O)Nc2nnc(-c3c(Cl)ccn3C)s2)oc1=O [Compound 201] please
[reply] < 5 nM

[ask] Do the same for COc1c(N2C[C@H](OC)[C@@H](O)C2)cc(C(=O)Nc2nnc(-n3nccc3C)s2)oc1=O (racemic) [Rac-91] please
[reply] 5 to 20 nM

[ask] Do the same for COc1c(NC23CCC(CC2)CC3)cc(C(=O)Nc2nnc(-n3nccc3C)s2)oc1=O [Compound 18] please
[reply] < 5 nM

[ask] Do the same for COCCNc1cc(C(=O)Nc2nnc(-c3sccc3C#N)s2)oc(=O)c1OC [Compound 145] please
[reply] ≥ 200 nM

----------
# assayed.system: hcGAS (Homo sapiens, UniProt Q8N884)
# Sequence (Q8N884 whole entry): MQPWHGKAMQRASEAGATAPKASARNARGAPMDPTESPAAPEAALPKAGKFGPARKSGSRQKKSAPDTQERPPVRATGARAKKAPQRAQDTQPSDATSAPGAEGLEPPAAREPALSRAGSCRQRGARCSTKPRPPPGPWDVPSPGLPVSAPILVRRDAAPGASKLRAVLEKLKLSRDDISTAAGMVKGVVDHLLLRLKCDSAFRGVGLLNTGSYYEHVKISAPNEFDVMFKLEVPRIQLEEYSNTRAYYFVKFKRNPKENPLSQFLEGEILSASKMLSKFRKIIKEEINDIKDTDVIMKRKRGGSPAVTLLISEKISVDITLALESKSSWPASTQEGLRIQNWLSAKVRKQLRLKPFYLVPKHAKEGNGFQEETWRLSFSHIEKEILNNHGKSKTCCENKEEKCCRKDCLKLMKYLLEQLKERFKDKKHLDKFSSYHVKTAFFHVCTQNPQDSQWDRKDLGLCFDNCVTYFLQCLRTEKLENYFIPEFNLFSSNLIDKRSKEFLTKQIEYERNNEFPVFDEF
# experiment: hcGAS Kinase-Glo assay (ATP depletion)
# Assay type: biochemical
# stated.conditions: 40 nM hcGAS, 100 μM ATP, 100 μM GTP, 25 nM dsDNA, 3 h incubation
# Description: cGAS catalyzes the cyclization of ATP and GTP to produce cGAMP, which is the activating ligand of STING. Human cGAS (hcGAS) inhibition can thus be quantified by measuring how much cGAMP is formed either indirectly, by monitoring ATP-depletion as in the hcGAS Kinase-Glo assay (as described below), or directly, such as using the hcGAS LCMS assay (as described below). (i) hcGAS Kinase-Glo Assay […]
IC50 values, listed per item

// worked examples, IC50 included
compound: COc1c(N[C@H]2CC[C@@H](OC)CC2)cc(C(=O)Nc2nnc(-n3nccc3C)s2)oc1=O
IC50: 10 to 30 nM

compound: COc1c(NC[C@@H]2CCCO2)cc(C(=O)Nc2nnc(-n3nccc3C)s2)oc1=O
IC50: 10 to 30 nM

compound: COc1c(N[C@H]2CCC[C@@H]2OC)cc(C(=O)Nc2nnc(-n3nccc3C)s2)oc1=O (racemic)
IC50: < 10 nM

compound: COc1c(N[C@H]2CC[C@H](O)C2)cc(C(=O)Nc2nnc(-n3nccc3C)s2)oc1=O (racemic)
IC50: 10 to 30 nM

compound: COc1c(N2CCC(CO)CC2)cc(C(=O)Nc2nnc(-n3nccc3C)s2)oc1=O
IC50: 10 to 30 nM

[ask] Can you look up the measured IC50 of COc1c(N[C@@H]2CC[C@H]2O)cc(C(=O)Nc2nnc(-n3nccc3C)s2)oc1=O (racemic) for me?
[reply] 10 to 30 nM

[ask] Do the same for COc1c(N2CCC[C@@H]2CO)cc(C(=O)Nc2nnc(-n3nccc3C)s2)oc1=O please
[reply] 30 to 100 nM

[ask] Do the same for COC[C@H]1CCN(c2cc(C(=O)Nc3nnc(-n4nccc4C)s3)oc(=O)c2OC)C1 please
[reply] 30 to 100 nM

----------
IC50 values, listed per item
# assayed.system: hcGAS (Homo sapiens)
# experiment: hcGAS Kinase-Glo assay (ATP depletion)
# Assay type: biochemical
# stated.conditions: 40 nM hcGAS, 100 μM ATP, 100 μM GTP, 25 nM dsDNA, 3 h incubation

molecule: COc1c(N2CC[C@@H](OC)C2)cc(C(=O)Nc2nnc(-n3nccc3C)s2)oc1=O
IC50: 10 to 30 nM
--
molecule: COc1c(N(C)C)cc(C(=O)Nc2nnc(-n3nccc3C)s2)oc1=O
IC50: 30 to 100 nM
--
molecule: COc1c(N[C@H]2CC[C@H](O)CC2)cc(C(=O)Nc2nnc(-n3nccc3C)s2)oc1=O
IC50: 10 to 30 nM
--
molecule: COCCNc1cc(C(=O)Nc2nnc(-c3c(Cl)ccn3C)s2)oc(=O)c1OC
IC50: 10 to 30 nM
--
molecule: COc1c(N[C@H]2CCOC2)cc(C(=O)Nc2nnc(-n3nccc3C)s2)oc1=O
IC50: 30 to 100 nM

[ask] Can you look up the measured IC50 of COc1c(N2C[C@H](OC)[C@@H](O)C2)cc(C(=O)Nc2nnc(-n3nccc3C)s2)oc1=O (racemic) for me?
[reply] < 10 nM

[ask] Do the same for COc1c(NCCO)cc(C(=O)Nc2nnc(-c3c(Cl)ccn3C)s2)oc1=O please
[reply] < 10 nM

[ask] Do the same for COc1c(N2CC[C@@H](S(C)(=O)=O)C2)cc(C(=O)Nc2nnc(-n3nccc3C)s2)oc1=O please
[reply] 10 to 30 nM

----------
IC50 values, listed per item
# assayed.system: hcGAS (Homo sapiens, UniProt Q8N884)
# experiment: hcGAS Kinase-Glo assay (ATP depletion)
# Type: biochemical
# stated.conditions: 40 nM hcGAS, 100 μM ATP, 100 μM GTP, 25 nM dsDNA, 3 h incubation

// worked examples, IC50 included
compound: COc1c(N[C@@H]2CCC[C@@H]2O)cc(C(=O)Nc2nnc(-n3nccc3C)s2)oc1=O (racemic) [Rac-23]
IC50: 10 to 30 nM
//
compound: COc1c(N2CC[C@H](OC)C2)cc(C(=O)Nc2nnc(-n3nccc3C)s2)oc1=O [Compound 57]
IC50: 10 to 30 nM
//
compound: COCCNc1cc(C(=O)Nc2nnc(-c3sccc3Cl)s2)oc(=O)c1OC [Compound 146]
IC50: 10 to 30 nM

Lab note: next compound to report on.
[ask] Can you look up the measured IC50 of COc1c(NCc2ccccc2)cc(C(=O)Nc2nnc(-n3nccc3C)s2)oc1=O [Compound 103] for me?
[reply] 30 to 100 nM

----------
pIC50 values, listed per item
# assayed.system: hcGAS (Homo sapiens, UniProt Q8N884)
# experiment: hcGAS Kinase-Glo assay (ATP depletion)
# Format: biochemical
# stated.conditions: 40 nM hcGAS, 100 μM ATP, 100 μM GTP, 25 nM dsDNA, 3 h incubation
pIC50: −log10 of the molar value.

// worked examples, pIC50 included
compound: COc1c(NC[C@@H](C)OC)cc(C(=O)Nc2nnc(-n3nccc3C)s2)oc1=O [Compound 119]
result: 7.52 to 8.00

compound: COc1c(NCCS(C)(=O)=O)cc(C(=O)Nc2nnc(-n3nccc3C)s2)oc1=O [Compound 183]
result: 7.00 to 7.52

compound: COCC12CC(Nc3cc(C(=O)Nc4nnc(-n5nccc5C)s4)oc(=O)c3OC)(C1)C2 [Compound 44]
result: 7.00 to 7.52

Lab note: next compound to report on.
[ask] Can you look up the measured pIC50 of COCCN(CCOC)c1cc(C(=O)Nc2nnc(-n3nccc3C)s2)oc(=O)c1OC [Compound 63] for me?
[reply] ≤ 7.00

----------
# assayed.system: hcGAS (Homo sapiens)
# experiment: hcGAS Kinase-Glo assay (ATP depletion)
# Assay type: biochemical
# stated.conditions: 40 nM hcGAS, 100 μM ATP, 100 μM GTP, 25 nM dsDNA, 3 h incubation
pIC50: −log10 of the molar value.
observation.type: pIC50

// worked examples, pIC50 included
compound: COc1c(NC23CC(C(F)F)(C2)C3)cc(C(=O)Nc2nnc(-n3nccc3C)s2)oc1=O
pIC50: 7.52 to 8.00

compound: COc1c(N[C@H]2CC[C@H](OC)C2)cc(C(=O)Nc2nnc(-n3nccc3C)s2)oc1=O (racemic)
pIC50: 7.52 to 8.00

compound: COc1c(N2C[C@H](O)[C@H](OC)C2)cc(C(=O)Nc2nnc(-n3nccc3C)s2)oc1=O (racemic)
pIC50: 7.52 to 8.00

Lab note: next compound to report on.
[ask] Can you look up the measured pIC50 of COc1c(NCC(F)(F)F)cc(C(=O)Nc2nnc(-n3nccc3C)s2)oc1=O for me?
[reply] 7.52 to 8.00

----------
pIC50 values, listed per item
# assayed.system: hcGAS (Homo sapiens, UniProt Q8N884)
# experiment: hcGAS LCMS assay (direct measurement of cGAMP production)
# Assay type: biochemical
# stated.conditions: 0.5 nM hcGAS, 100 μM ATP, 100 μM GTP, 25 nM dsDNA, 4 h incubation
pIC50: −log10 of the molar value.

compound: COc1c(N[C@H]2CCN(C)C2=O)cc(C(=O)Nc2nnc(-n3nccc3C)s2)oc1=O (single isomer, unassigned)
assayed.system: hcGAS (Homo sapiens, UniProt Q8N884)
result: 7.70 to 8.30

[ask] Can you look up the measured pIC50 of COc1c(N[C@H]2CCC[C@H]2C#N)cc(C(=O)Nc2nnc(-n3nccc3C)s2)oc1=O (single isomer, unassigned) for me?
[reply] > 8.30

[ask] Do the same for COc1c(N[C@H]2CC[C@@H](OC)C2)cc(C(=O)Nc2nnc(-n3nccc3C)s2)oc1=O (single isomer, unassigned) [124*] please
[reply] 7.70 to 8.30

// provenance: patent US20240270740A1
